# TARGET UNDER TEST: BRD4-BD1 (Homo sapiens)
# ASSAY METHOD TEXT: bromoKdELECT assay for binding affinity to BRD4-BD1
# CONDITION CONTEXT: Table 6
pKd: −log10 of the molar value.
ATTRIBUTE MEASURED: pKd

See these solved cases before continuing.
item_smiles=Cc1sc2c(c1C)C(c1ccc(CCCOC3CCN(c4ncc(C(=O)N[C@H]5C(C)(C)[C@H](Oc6ccc(C#N)c(Cl)c6)C5(C)C)cn4)CC3)cc1)=N[C@@H](CC(=O)NC1CC1)c1nnc(C)n1-2 target_under_test="BRD4-BD1 (Homo sapiens)" data_value="5.60 to 6.30"
item_smiles=Cc1sc2c(c1C)C(c1ccc(Cl)cc1)=N[C@@H](CC(=O)NCCCN1CCN(CC3CCN(c4ncc(C(=O)N[C@H]5C(C)(C)[C@H](Oc6ccc(C#N)c(Cl)c6)C5(C)C)cn4)CC3)CC1)c1nnc(C)n1-2 target_under_test="BRD4-BD1 (Homo sapiens)" data_value="6.30 to 7.30"

// below: pKd requested for another compound
Prompt: Write down pKd measured for item CCNC(=O)C[C@@H]1N=C(c2ccc(OCCOC3CCN(c4ncc(C(=O)N[C@H]5C(C)(C)[C@H](Oc6ccc(C#N)c(Cl)c6)C5(C)C)cn4)CC3)cc2)c2c(sc(C)c2C)-n2c(C)nnc21
Completion: 6.30 to 7.30

---

# Tested on: T-Rex 293 cell line SC3 cells lacking increased expression of androgen receptor protein
# ASSAY METHOD TEXT: Cellular growth inhibition, T-Rex 293 SC3 cells without doxycycline, CellTiter-Glo
# Type: cell-based
# CONDITION CONTEXT: 72 h, T-Rex 293 SC3 cells not exposed to doxycycline, CellTiter-Glo 2.0
// reported GI50 for each item listed

See these solved cases before continuing.
compound="Cc1sc2c(c1C)C(c1ccc(OC3CC4(CCN(c5ncc(C(=O)N[C@H]6C(C)(C)[C@H](Oc7ccc(C#N)c(Cl)c7)C6(C)C)cn5)CC4)C3)cc1)=NC(C(F)(F)F)c1nnc(C)n1-2 (some centres unmarked) [Compound I-600]" data_value="> 3000 nM"
compound="Cc1sc2c(c1C)C(c1ccc(-n3ncc(C4CCN(c5ncc(C(=O)N[C@H]6C(C)(C)[C@H](Oc7ccc(C#N)c(Cl)c7)C6(C)C)cn5)CC4)n3)cc1)=N[C@@H](Cc1ncco1)c1nnc(C)n1-2 [Compound I-430]" data_value="< 500 nM"
compound="Cc1sc2c(c1C)C(c1ccc(OC3CC4(CCN(c5ncc(C(=O)N[C@H]6C(C)(C)[C@H](Oc7ccc(C#N)c(Cl)c7)C6(C)C)cn5)CC4)C3)cc1)=NC(Cc1ncco1)c1nnc(C)n1-2 (some centres unmarked) [Compound I-166]" data_value="500 to 1500 nM"
compound="Cc1sc2c(c1C)C(c1ccc(O[C@@H]3COC4(C3)CN(c3ncc(C(=O)N[C@H]5C(C)(C)[C@H](Oc6ccc(C#N)c(Cl)c6)C5(C)C)cn3)C4)cc1)=N[C@@H](Cc1ncco1)c1nnc(C)n1-2 [Compound I-182]" data_value="< 500 nM"

Prompt: Write down GI50 measured for item Cc1sc2c(c1C)C(c1cccc(OCCOC3CCN(c4ncc(C(=O)N[C@H]5C(C)(C)[C@H](Oc6ccc(C#N)c(Cl)c6)C5(C)C)cn4)CC3)c1)=N[C@@H](CC(=O)O)c1nnc(C)n1-2 [Compound I-41]
Completion: > 3000 nM
